# Relative abundance of OUT (operational taxonomic units) per record follows
- Tested on: intestinal flora
- experiment: Effects of administration routes on the diversity of intestinal flora in mice (16S rDNA sequencing, OTU)
- Format: in vivo
- recorded_conditions: C57BL/6 mice, feces; oral administration for five consecutive days; D5
quantity_measured: Relative abundance of OUT (operational taxonomic units) (%)

>>> df
                                   molecule  measure_unit  measured
0  CO/N=C(\C(=O)N[C@@H]1C(=O)N2C(C(=O)O)=C(CSc3nc(=O)c(=O)[nH]n3C)CS[C@H]12)c1csc(N)n1 [Ceftriaxone]             %      15.5
1  C[C@@H](O)[C@H]1C(=O)N2C(C(=O)O)=C(S[C@@H]3CN[C@H](C(=O)Nc4cccc(C(=O)O)c4)C3)[C@H](C)[C@H]12 [Ertapenem]             %      16.0
2  CC1=C(C(=O)O)N2C(=O)[C@@H](NC(=O)[C@H](N)C3=CCC=CC3)[C@H]2SC1 [Cefradine]             %      20.7
3  CC(C)(O/N=C(\C(=O)N[C@@H]1C(=O)N2C(C(=O)[O-])=C(C[n+]3ccccc3)CS[C@H]12)c1csc(N)n1)C(=O)O [Ceftazidime]             %      19.2
